assay: Water solubility at 25° C.; assay type: physicochemical; conditions: water, 25 °C, water, solid organic compounds; 25° C.; read-out: Water Solubility
QUANTITY KIND: solubility (µg/mL)

>  <COMPOUND>
Cc1cc(CC(C)CC(C)(C)C)n(O)c(=O)c1 (stereo not shown) [Piroctone, reference compound]

>  <UNIT LABEL>
µg/mL

>  <QUANTITATIVE READOUT>
240

$$$$

----------
assay: Water solubility at 25° C.; type: physicochemical; details: water, 25 °C, water, first liquid oily compounds; read-out: Solubility in H2O
In this section we review reported solubility values for a set of compounds.
QUANTITY KIND: solubility (µg/mL)

>  <COMPOUND>
CCCCCCC(C=O)=Cc1ccccc1

>  <QUANTITY KIND>
solubility

>  <QUANTITATIVE READOUT>
2.75

$$$$
>  <COMPOUND>
CCCCCC1C(=O)CCC1CC(=O)OC (centres unmarked) [Methyl Dihydro Jasmonate]

>  <QUANTITY KIND>
solubility

>  <QUANTITATIVE READOUT>
91.7

$$$$
